# EXPERIMENTAL TARGET: UniProt P01375
# Sequence (P01375 77-233 limits assumed): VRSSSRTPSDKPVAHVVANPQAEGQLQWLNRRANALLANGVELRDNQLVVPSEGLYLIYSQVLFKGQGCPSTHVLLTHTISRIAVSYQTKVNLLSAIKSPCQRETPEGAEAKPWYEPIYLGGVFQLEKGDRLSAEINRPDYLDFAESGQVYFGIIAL
# PROCEDURE SUMMARY: TNF induced HEK-Blue assay (NF-kB-driven secreted alkaline phosphatase reporter)
# Format: cell-based
# CONDITION INFO: TNFα 0.5 ng/mL, HEK-Blue-CD40L cells, 18 h; read-out: TNF induced HEK-Blue assay IC50 value
Consider the following molecules; for each one, report its IC50.

Return reported IC50; argument: CCCC(C)C(N)c1c(Cl)c(C)nc2ccc(-c3cnc(C(C)(C)O)nc3)cc12 (single isomer, unassigned) [Example 357]
1000 to 10000 nM

Return reported IC50; argument: C[C@@H](Nc1c(Cl)cnc2ccc(-c3cnc(C(C)(C)O)nc3)cc12)C1CCCCC1 [Example 58]
< 1000 nM

Return reported IC50; argument: Cc1nc2cc(F)c(-c3cnc(C(C)(C)O)nc3)cc2c(N[C@H](C)c2cc(OCCCO)ccc2F)c1Cl [Example 443]
< 1000 nM

Parameters: items (list). Returns: IC50 for each item.
1. C[C@@H](Nc1c(Cl)cnc2ccccc12)c1cc(-c2ccccc2)ccc1F [Example 459]
2. Cc1nc2ccc(-c3cnc(N4CCS(=O)(=O)CC4)nc3)cc2c(NC(C)c2ccccc2F)c1Cl (racemic) [Example 310]
3. C[C@@H](Nc1c(Cl)cnc2ccccc12)c1cc(-c2cncs2)ccc1F [Example 542]
4. Cc1nc2cc(F)c(-c3cnc(C(C)(C)O)nc3)cc2c(N[C@H](C)c2cccc(C(N)=O)c2)c1Cl [Example 394]
5. Cc1ccc(C)c(NCc2nc3ccc(-c4ccc(C#N)nc4)cc3c(Nc3cc(C)ccc3C)c2Cl)c1 [Example 3]
6. C[C@@H](Nc1c(Cl)cnc2ccccc12)c1cc(-c2ccc(N(C)C)nc2)ccc1F [Example 506]
7. CCC(Nc1c(Cl)cnc2ccc(-c3cnc(C(C)(C)O)nc3)cc12)c1ccccn1 (racemic) [Example 52]
8. C[C@@H](Nc1c(Cl)cnc2ccc(-c3ccc(C(O)(CF)CF)cc3)cc12)c1ccccc1F [Example 117]

1. < 1000 nM
2. < 1000 nM
3. < 1000 nM
4. < 1000 nM
5. 1000 to 10000 nM
6. < 1000 nM
7. < 1000 nM
8. < 1000 nM

---

# EXPERIMENTAL TARGET: UniProt P01375
# PROCEDURE SUMMARY: TNF induced HEK-Blue assay (NF-kB-driven secreted alkaline phosphatase reporter)
# Format: cell-based
# CONDITION INFO: TNFα 0.5 ng/mL, HEK-Blue-CD40L cells, 18 h; read-out: TNF induced HEK-Blue assay IC50 value
pIC50: −log10 of the molar value.
PROPERTY: pIC50

In the examples that follow, each entry is paired with its recorded pIC50.
Return reported pIC50; argument: CC(Nc1c(Cl)cnc2cc(F)c(-c3ccc(C(O)CO)cc3)cc12)c1cc(C#N)ccc1F (mixture of isomers)
> 6.00

Return reported pIC50; argument: CC(Nc1c(Cl)cnc2ccc(-c3ccc(C(C)(C)O)cc3)cc12)c1ccon1 (racemic)
4.60 to 5.00

Return reported pIC50; argument: Cc1nc2ccc(-c3cnc(C(C)(C)O)nc3)cc2c(N[C@H](c2cc(Br)ccc2F)C(F)F)c1Cl
4.60 to 5.00

Here is another compound to look at.
Return reported pIC50; argument: CC(Nc1c(Cl)cnc2cc(F)c(-c3cnc(N4CCC(C(C)(C)O)CC4)nc3)cc12)c1ccccc1F (single isomer, unassigned)
> 6.00
